- Experiment summary: Inhibition of PDE4D7 S129D mutant (unknown origin) preincubated for 5 to 10 mins followed by substrate addition and measured for 10 mins by coupled enzyme based fluorescence analysis
- Set-up: species or system Homo sapiens
Readout label: IC50 (nM)

Molecule smiles	Reported value
COc1cccc(-c2nc(Cc3cn[nH]c3)ccc2OC(F)F)c1	2.7

(a) COc1ccc(Oc2cn[nH]c2)nc1-c1cccc(F)c1
(b) FC(F)Oc1cccc(-c2nc(Cc3cn[nH]c3)ccc2OCc2ccccc2)c1
(c) COc1cccc(-c2nc(Cc3cnn(C)c3)ccc2OC(F)F)c1
(d) COc1ccc(Cn2ccnc2)nc1-c1cccc(OC(F)F)c1
List items by IC50 in falling order. I'd appreciate it if you listed the labels in the requested order.
a, b, c, d
